Where do the numbers come from? From paper PMC9489722.

Assay: In vitro proliferation assay (CellTiter-Glo), normal cell lines
Type: cell-based
Details: human, normal cell lines (4 of the 6 tested; lines not named); 4 of the 6 normal cell lines tested; read-out: cytotoxicity EC50, normal cell lines
property: EC50 at 72 h

Give its EC50 at 72 h value. Item: NC1(c2ccc(-c3nc4ccn5c(=O)[nH]nc5c4cc3-c3ccccc3)cc2)CCC1 [MK-2206, reference compound]
< 20 µM

###

Assay: Pharmacokinetic study in Sprague–Dawley rats
Type: in vivo, rat
Conditions: Sprague-Dawley, rat, plasma, iv; male SD rats, 1 mg/kg i.v.; read-out: Rat PK CL
Catalogue of clearance readings, one per entry.
Dear colleague, please return just the value in mL/min/kg, with no unit written.

compound: CCN1C(=O)COc2nc(-c3ccc([C@]4(N)C[C@@H](O)C4)cc3)c(-c3ccccc3)cc21 [ALM301]
unitAbbrev: mL/min/kg
clearance: 19

API: the following record is the query input.
Give its clearance value. Item: NC1(c2ccc(-c3nc4ccn5c(=O)[nH]nc5c4cc3-c3ccccc3)cc2)CCC1 [MK-2206, reference compound]
24

###

Assay: LogD7.4 assay
Assay type: physicochemical
Details: octanol/PBS buffer; octanol/PBS pH 7.4
Method: Compounds (100 µM) were shaken at 300 rpm at room temperature for 4 h in a biphasic system of octanol and PBS buffer pH 7.4 in a 96-well plate in triplicate. The relative drug concentration in each phase was then determined by the peak area measurement from LC-UV analysis on an Agilent 1260 chromatography instrument (UV detection at 254 nm and 220 nm). […]
Catalogue of logD at 4 h readings, one per entry.
Answer as a number with no unit attached.

compound: CCN1C(=O)COc2nc(-c3ccc([C@]4(N)C[C@@H](O)C4)cc3)c(-c3ccccc3)cc21 [ALM301]
resultNumber: 1.2

API: the following record is the query input.
Give its logD at 4 h value. Item: NC1(c2ccc(-c3nc4ccn5c(=O)[nH]nc5c4cc3-c3ccccc3)cc2)CCC1 [MK-2206, reference compound]
2.4

###

Tested on: pAKT (Ser473) in MCF-7 cells
Assay: phospho-AKT (S473) ELISA in MCF-7 cells
Type: cell-based
Conditions: Homo sapiens, MCF7, 24h treatment, read-out: EC50 inhibition of phosphorylation of AKT
property: EC50 (µM)
Dear colleague, please return just the value in µM, with no unit written.

compound: NC1(c2ccc(-c3nc4ccn5c(=O)[nH]nc5c4cc3-c3ccccc3)cc2)CCC1 [MK-2206, reference compound]
unitAbbrev: µM
resultNumber: 2.55

API: the following record is the query input.
Give recorded EC50 with pAKT (Ser473) in MCF-7 cells for the following compound: `CCN1C(=O)COc2nc(-c3ccc([C@]4(N)C[C@@H](O)C4)cc3)c(-c3ccccc3)cc21`
0.47

###

Molecular target: CYP 1A2 (Homo sapiens, UniProt P05177)
Sequence (P05177 whole entry): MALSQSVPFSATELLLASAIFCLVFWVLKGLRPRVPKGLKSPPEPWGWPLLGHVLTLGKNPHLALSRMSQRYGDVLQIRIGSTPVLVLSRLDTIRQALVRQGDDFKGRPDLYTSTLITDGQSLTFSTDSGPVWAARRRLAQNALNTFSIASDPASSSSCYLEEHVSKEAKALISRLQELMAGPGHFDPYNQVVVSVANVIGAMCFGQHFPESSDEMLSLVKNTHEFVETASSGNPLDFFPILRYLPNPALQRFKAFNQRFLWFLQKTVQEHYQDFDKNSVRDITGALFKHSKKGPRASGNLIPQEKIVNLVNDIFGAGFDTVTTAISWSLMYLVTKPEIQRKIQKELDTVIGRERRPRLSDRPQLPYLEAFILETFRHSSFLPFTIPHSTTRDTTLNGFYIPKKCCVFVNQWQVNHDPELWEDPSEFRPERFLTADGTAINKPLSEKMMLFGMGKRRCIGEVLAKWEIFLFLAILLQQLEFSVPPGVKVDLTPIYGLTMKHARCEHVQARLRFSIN
property: IC50

Give recorded IC50 with CYP 1A2 (Homo sapiens, UniProt P05177) for the following molecule: `CCN1C(=O)COc2nc(-c3ccc([C@]4(N)C[C@@H](O)C4)cc3)c(-c3ccccc3)cc21`
> 25 µM

###

Target: CYP 2D6 (Homo sapiens)
Sequence (P10635 whole entry): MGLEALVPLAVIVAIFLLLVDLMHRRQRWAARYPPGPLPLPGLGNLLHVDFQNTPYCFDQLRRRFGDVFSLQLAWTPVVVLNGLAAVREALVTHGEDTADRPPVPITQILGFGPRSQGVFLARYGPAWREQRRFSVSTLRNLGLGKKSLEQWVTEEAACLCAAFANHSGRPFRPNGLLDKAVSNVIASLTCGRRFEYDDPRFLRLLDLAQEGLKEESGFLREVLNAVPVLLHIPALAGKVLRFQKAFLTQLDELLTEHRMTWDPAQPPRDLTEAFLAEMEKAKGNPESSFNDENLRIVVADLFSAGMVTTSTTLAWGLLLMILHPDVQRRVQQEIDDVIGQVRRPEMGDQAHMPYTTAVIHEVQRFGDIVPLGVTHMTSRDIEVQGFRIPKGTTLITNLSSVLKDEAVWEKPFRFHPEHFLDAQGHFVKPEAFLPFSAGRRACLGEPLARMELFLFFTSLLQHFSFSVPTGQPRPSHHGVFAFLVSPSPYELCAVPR
property: IC50

Give recorded IC50 with CYP 2D6 (Homo sapiens) for the following compound: `CCN1C(=O)COc2nc(-c3ccc([C@]4(N)C[C@@H](O)C4)cc3)c(-c3ccccc3)cc21`
> 25 µM
